- System: Inhibin beta A chain (activin A)
- MEASUREMENT_DESCRIPTION: INHBA (activin A) binders on microarrays, primary screen, biochemical, small-molecule microarray, 635 nm fluorescence scan (AID 1107);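 also: mouse activin A protein probed at 4.33 µg/mL on printed slides; score merges bound-protein fluorescence near 667 nm with spot signal-to-noise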
- CONDITION: small-molecule microarray binding, higher = more signal
Measured composite z-score of individual entries

COMPOUND	composite z-score
C=CCC(OC(C)=O)[C@@H]1[C@@H](N(Cc2cc3ccccc3o2)C(=O)c2ccc(-c3ccccc3)cc2)c2cc(OCCCO)ccc2N1C(=O)c1ccc2ccccc2c1 (some centres not stated)	1.02
C=CCC(OC(C)=O)[C@@H]1[C@@H](N(Cc2cc3ccccc3o2)C(=O)c2ccc(C)cc2)c2cc(OCCCO)ccc2N1C(=O)Cc1ccc(OC)cc1 (some centres not stated)	1.01
COCC1=C2[C@@H](CCc3ccccc3)OB(O)C[C@@H]2[C@@H]2C(=O)C=CC(=O)[C@@H]2C1	0.27
[N-]=[N+]=Nc1ccccc1[C@H]1OC(c2ccc(OCCCO)cc2)=N[C@@]1(Cc1ccccc1)C(=O)N1CCCCC1	1.03
C=C(/C(=C/C[C@H](OC(C)=O)c1cccc(OCCO)c1)c1cnc2ccccc2c1)C(C)C	1.98
O=C1OCCC/C=C\[C@H]2OC34C=CCN(CCN5CCOCC5)C(=O)[C@H]3N(CCCCCCO)C(=O)[C@@H]4C12 (some centres not stated)	1.41
COc1ccc(C(O)C2C=CC3C(=O)N(c4ccccc4)C(=O)C3N2Nc2ccc([N+](=O)[O-])cc2)cc1 (configuration not stated)	0.918

###

- TEST_SYSTEM: Follistatin-related protein 3 (Homo sapiens) (UniProt O95633)
- Sequence (O95633 whole entry, looked up): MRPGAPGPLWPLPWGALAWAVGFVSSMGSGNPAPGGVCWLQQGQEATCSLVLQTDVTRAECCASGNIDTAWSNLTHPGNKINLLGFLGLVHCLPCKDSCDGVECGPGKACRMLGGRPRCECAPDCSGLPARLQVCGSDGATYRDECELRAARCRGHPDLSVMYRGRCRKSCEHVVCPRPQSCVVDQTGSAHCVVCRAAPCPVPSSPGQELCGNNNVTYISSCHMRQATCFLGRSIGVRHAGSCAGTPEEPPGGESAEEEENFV
- MEASUREMENT_DESCRIPTION: FSTL3 binders on small-molecule microarrays, primary screen, biochemical, small-molecule microarray, 635 nm fluorescence (AID 1105);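 also: score merges emission near 667 nm and signal to noise per printed spot across three slides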
- CONDITION: FSTL3 binding, higher = more signal
REPORTED_METRIC: composite z-score

COMPOUND	TEST_RESULT
C=CCC(OC(C)=O)[C@@H]1[C@@H](N(Cc2ccc(-c3cccc(C(F)(F)F)c3)o2)C(=O)c2ccc(-c3ccccc3)cc2)c2cc(OCCCO)ccc2N1C(=O)c1ccc2ccccc2n1 (stereo partly drawn)	0.472
O=C(NCC(F)(F)F)[C@@H]1c2ccccc2C(=O)N(Cc2ccc(OC(F)(F)F)cc2)[C@H]1c1ccc(CO)cc1	0.284
COC(=O)[C@@]1(Cc2ccccc2N=[N+]=[N-])N=C(c2ccc(OCCCO)cc2)O[C@H]1c1ccccc1N=[N+]=[N-]	0.419
CCOC(=O)C[C@H]1[C@H](OC(=O)c2cc3ccccc3oc2=O)[C@@H](NC(=O)c2ccc(-c3ccccc3)cc2)c2cc(OCCCO)ccc2N1C(=O)c1ccc2ccccc2n1	1.06
COc1ccc([Si](C)(C)[C@@H]2[C@@H](CC(=O)N(CCO)Cc3ccccc3)O[C@]3(C(=O)N(Cc4cccc(N5CCOC5=O)c4)c4ccccc43)[C@H]2C)cc1	0.468
C=CCNC(=O)[C@@H]1[C@H]2C(=O)O[C@H](c3ccccc3)[C@H](c3ccccc3)N2[C@H](c2ccc(O)cc2)[C@@]12C(=O)N(C(=O)OCCOC)c1ccc(C#CC3(O)CCCCCC3)cc12	-1.45
CCOC(=O)C[C@H]1[C@H](OC(=O)c2cc3ccccc3oc2=O)[C@@H](NC(=O)c2ccc(-c3ccccc3)cc2)c2cc(OCCCO)ccc2N1C(=O)c1ccccc1	1.05
CCOC(=O)C[C@H]1[C@H](OC(=O)Cc2ccc3c(c2)OCO3)[C@@H](NC(=O)Cc2ccc(OC)cc2)c2cc(OCCCO)ccc2N1C(=O)c1ccc2ccccc2n1	-0.114
[N-]=[N+]=NCc1ccccc1[C@H]1OC(c2ccc(OCCCO)cc2)=N[C@@]1(CCS(=O)(=O)c1ccccc1)C(=O)NCC(O)CO (stereo partly drawn)	0.264
O=C(NCc1ccccc1)[C@@H]1c2ccccc2C(=O)N(Cc2ccccc2C(F)(F)F)[C@H]1c1ccc(CO)cc1	-0.45
O=C1C[C@@](C(=O)NCCN2CCOCC2)(c2ccc([N+](=O)[O-])cc2)[C@@H](c2ccc(CO)cc2I)N1C1CCCCC1	0.926
C[C@H]1NC(=O)[C@@]23C(=O)N[C@@H](Cc4ccccc4)C2[C@H](C)[C@@]2(C)O[C@H]2C3/C=C/C/C=C\CNC(=O)[C@H](Cc2ccccc2)NC1=O (stereo partly drawn)	1.01
O=C1OCC=C[C@H]2OC34C=CCN(Cc5ccccc5)C(=O)[C@H]3N(CCCCCCO)C(=O)[C@@H]4[C@@H]12 (stereo partly drawn)	-0.608
